Measured Serum τ1/2 (h) rat values are reported for all entries that follow.
experiment: Serum stability in rat serum at 37° C.; format: in vitro ADME; settings: mono-exponential fit
Please state the figure in h; there is no need to write the unit.

molecule="A54P/C124A: RLuc mutant A54P/C124A (protein) MASKVYDPEQRKRMITGPQWWARCKQMNVLDSFINYYDSEKHAENAVIFLHGNPASSYLWRHVVPHIEPVARCIIPDLIGMGKSGKSGNGSYRLLDHYKYLTAWFELLNLPKKIIFVGHDWGAALAFHYSYEHQDKIKAIVHAESVVDVIESWDEWPDIEEDIALIKSEEGEKMVLENNFFVETMLPSKIMRKLEPEEFAAYLEPFKEKGEVRRPTLSWPREIPLVKGGKPDVVQIVRNYNAYLRASDDLPKMFIESDPGFFSNAIVEGAKKFPNTEFVKVKGLHFSQEDAPDEMGKYIKSFVERVLKNEQ" measured_result=13

Turning to the following molecule.
What value of Serum τ1/2 (h) rat has been reported for the following molecule? C124A/S257G: RLuc mutant C124A/S257G (protein) MASKVYDPEQRKRMITGPQWWARCKQMNVLDSFINYYDSEKHAENAVIFLHGNAASSYLWRHVVPHIEPVARCIIPDLIGMGKSGKSGNGSYRLLDHYKYLTAWFELLNLPKKIIFVGHDWGAALAFHYSYEHQDKIKAIVHAESVVDVIESWDEWPDIEEDIALIKSEEGEKMVLENNFFVETMLPSKIMRKLEPEEFAAYLEPFKEKGEVRRPTLSWPREIPLVKGGKPDVVQIVRNYNAYLRASDDLPKMFIEGDPGFFSNAIVEGAKKFPNTEFVKVKGLHFSQEDAPDEMGKYIKSFVERVLKNEQ
1.4
